- ASSAY TARGET: Ylr278c (UniProt Q05854)
- Sequence (Q05854 whole entry): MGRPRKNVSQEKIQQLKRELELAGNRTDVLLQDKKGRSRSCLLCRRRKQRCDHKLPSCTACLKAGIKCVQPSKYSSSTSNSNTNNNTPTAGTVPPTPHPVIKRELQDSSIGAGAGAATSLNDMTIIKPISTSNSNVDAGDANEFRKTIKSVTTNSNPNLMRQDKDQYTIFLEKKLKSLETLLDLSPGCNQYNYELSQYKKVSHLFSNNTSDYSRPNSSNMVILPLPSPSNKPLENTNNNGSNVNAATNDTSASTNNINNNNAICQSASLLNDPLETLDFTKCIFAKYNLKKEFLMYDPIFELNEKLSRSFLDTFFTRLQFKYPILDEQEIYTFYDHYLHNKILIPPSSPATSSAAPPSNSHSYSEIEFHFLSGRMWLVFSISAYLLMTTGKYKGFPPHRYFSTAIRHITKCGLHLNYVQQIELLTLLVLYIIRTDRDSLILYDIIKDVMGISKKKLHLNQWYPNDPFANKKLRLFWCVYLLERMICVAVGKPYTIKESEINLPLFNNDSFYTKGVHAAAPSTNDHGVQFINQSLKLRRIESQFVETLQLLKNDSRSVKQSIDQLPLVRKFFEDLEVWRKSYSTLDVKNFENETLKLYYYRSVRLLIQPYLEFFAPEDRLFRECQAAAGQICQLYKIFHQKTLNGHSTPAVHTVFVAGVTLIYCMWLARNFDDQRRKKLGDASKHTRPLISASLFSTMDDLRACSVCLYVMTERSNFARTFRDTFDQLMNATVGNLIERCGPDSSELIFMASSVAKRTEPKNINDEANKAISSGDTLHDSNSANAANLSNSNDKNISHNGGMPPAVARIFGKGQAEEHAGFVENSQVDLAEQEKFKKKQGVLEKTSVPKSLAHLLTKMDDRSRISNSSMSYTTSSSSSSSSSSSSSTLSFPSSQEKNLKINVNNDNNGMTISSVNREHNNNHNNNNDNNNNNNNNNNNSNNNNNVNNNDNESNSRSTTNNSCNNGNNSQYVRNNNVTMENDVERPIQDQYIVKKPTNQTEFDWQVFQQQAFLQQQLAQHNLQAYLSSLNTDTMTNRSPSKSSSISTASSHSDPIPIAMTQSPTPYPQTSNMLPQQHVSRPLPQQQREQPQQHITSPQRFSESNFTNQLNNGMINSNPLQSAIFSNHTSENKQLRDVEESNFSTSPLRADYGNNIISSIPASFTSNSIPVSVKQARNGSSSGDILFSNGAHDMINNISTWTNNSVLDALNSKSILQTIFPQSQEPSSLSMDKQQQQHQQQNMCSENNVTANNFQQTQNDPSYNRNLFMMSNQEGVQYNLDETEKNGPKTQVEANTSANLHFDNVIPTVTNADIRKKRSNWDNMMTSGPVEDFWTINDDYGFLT
- ASSAY OVERVIEW: PBM E-score (8-mer binding enrichment) (E-score (-0.5 to 0.5)); higher = stronger / more preferred TF binding
- EXPERIMENTAL CONDITIONS: protein concentration: 200 nM; construct: GST-DNA-binding domain
The full ranking holds about 33,000 sequences; the median of “E-score (-0.5 to 0.5)” is about -0.054, and the highest 2% start at about 0.39. For the sample, the highest values were picked, then their nearest neighbours and some sequences at random.
In this scheme, each record receives a class according to its PBM E-score; the ranges are range A: < 0.003; range B: ≥ 0.003 and < 0.3; range C: ≥ 0.3

GCACCGGC :: range B
CGGATGTC :: range C
AGCTTACG :: range A

Q) Please let me know in which category the item CCCGCGGG belongs.
A) range C

Q) Could you place TCCGCGGA in its proper category? Many thanks.
A) range C

Q) Exercise: read the entry TGCCGGAA and state which class it falls under.
A) range C

----------
PBM E-score reference
- ASSAY TARGET: Ylr278c (UniProt Q05854)
- ASSAY OVERVIEW: PBM E-score (8-mer binding enrichment) (E-score (-0.5 to 0.5)); higher = stronger / more preferred TF binding
- EXPERIMENTAL CONDITIONS: protein concentration: 200 nM; construct: GST-DNA-binding domain
Over roughly 33,000 sequences, “E-score (-0.5 to 0.5)” has its median near -0.054; the highest 2% begin near 0.39. The list comes from a sample in which the highest values are over-represented; it also holds close analogues and randomly drawn sequences.
Lab note: write the figure by itself, no unit.

CATCGGTA :: 0.261
ATGGAGTC :: 0.0654
AATCCGAC :: 0.402

Result for ACCGGCGC , tested on Ylr278c (UniProt Q05854), PBM E-score: 0.351

Bench note, Ylr278c (UniProt Q05854): entry GATCGGGC , its PBM E-score = 0.184

Bench note, Ylr278c (UniProt Q05854): entry GCAACTCC , its PBM E-score = 0.327

Form field PBM E-score for item GCGGAGTA on Ylr278c (UniProt Q05854): 0.449

For CGTTCGTA on Ylr278c (UniProt Q05854), measured PBM E-score was 0.0114

----------
- ASSAY TARGET: Ylr278c (UniProt Q05854)
- ASSAY OVERVIEW: PBM E-score (8-mer binding enrichment) (E-score (-0.5 to 0.5)); higher = stronger / more preferred TF binding
- EXPERIMENTAL CONDITIONS: protein concentration: 200 nM; construct: GST-DNA-binding domain
In all, about 33,000 sequences were measured (“E-score (-0.5 to 0.5)”: median about -0.054, highest 2% from about 0.39 on). This is one part of a sample in which the highest values are shown more often than they occur.
TEST READOUT: PBM E-score
Kindly provide the number alone.

Some entries whose results are on file:
GCAGTTCC :: 0.169
ATCGTGAA :: 0.00733
TCCTTGAA :: -0.227

Noted for ATAGTGAT : its PBM E-score reads -0.203

----------
- ASSAY TARGET: Ylr278c (UniProt Q05854)
- ASSAY OVERVIEW: PBM E-score (8-mer binding enrichment) (E-score (-0.5 to 0.5)); higher = stronger / more preferred TF binding
- EXPERIMENTAL CONDITIONS: protein concentration: 200 nM; construct: GST-DNA-binding domain
In all, about 33,000 sequences were measured (“E-score (-0.5 to 0.5)”: median about -0.054, highest 2% from about 0.39 on). Shown is part of a subset that was picked to be rich in the highest values.
Could you please classify the records by PBM E-score using these ranges: bottom = under -0.1, middle = from -0.1 up to -0.05, top = -0.05 and over

The examples below pair each entry with its known result.
AAGCAATT :: middle
CCGGACGC :: top
AGTCAGCG :: top
ACTGTTCA :: bottom
AGCGACTC :: bottom

Q) Lab note: which band did ATGGATGC land in?
A) top

Q) State the class of the sequence shown: ATGGAGTG
A) middle

Q) Determine which band this sequence sits in: TGCTCTAA
A) bottom

Q) Category of AGCATAGG , please.
A) bottom

Source listed as the supplement of paper PMC3334620.
